Field: TGI. Provide a value for each of the compounds that follow.
tested on: SK-MEL-5 melanoma; assay: NCI tumour cell line growth inhibition, 48 h

*Q* Answer with reported TGI of `[O-][N+](CCO)(CCO)c1ncnc2nc[nH]c12`
*A* > 100 µM

*Q* Recall and state the measured TGI for `CCOC(=O)C(Cc1c2ccccc2cc2ccccc12)(NC(C)=O)C(=O)OCC` .
*A* > 100 µM

*Q* Tell me TGI reported for CC(=O)OC1CC(O)CC2=CCC3C4CCC(C(C)(O)C(O)CC5COC(=O)C5C)C4(C)CCC3C21C (stereo unspecified)
*A* > 25 µM

*Q* Give a short answer stating reported TGI for `O=C(/C=C\c1cccc2ccccc12)c1cccs1` .
*A* 26.1 µM

*Q* Quote TGI reported for CC(=O)Nc1ccc(C(=O)NN2C(=O)C(Cl)C2c2cc(Br)ccc2O)cc1 (stereo unspecified) please.
*A* > 100 µM

*Q* Answer with the recorded TGI of `CCOC(=O)c1c(-c2ccccc2)[n+](=O)c2ccc(Cl)cc2n1[O-]` only.
*A* 3.33 µM

*Q* Hello, please tell me recorded TGI for this one: `COc1ccc(/C(C)=C(\c2ccc(Cl)cc2)c2ccc(OCCN3CCCC3)cc2)cc1F`
*A* 7.78 µM

*Q* Please supply the value of reported TGI for the item `CN1CCC[C@@H]1CCO[C@](C)(c1ccccc1)c1ccc(Cl)cc1`
*A* 2.89 µM

*Q* Provide one value: measured TGI of `O=C(Nc1nccs1)c1cc2c(cc1Cl)Sc1nccn1S2(=O)=O`
*A* 30 µM

*Q* State, in one line, measured TGI of `COc1ccc(-c2cnc3ccnn3c2-c2cc(OC)c(OC)c(OC)c2)cc1`
*A* > 100 µM

*Q* Specify TGI for `CCOC(=O)/C(=C/c1ccc([N+](=O)[O-])cc1)C(=O)c1ccccc1` and stop.
*A* 3.62 µM

*Q* Output TGI of `CC1(C)C=C(/C=N/Nc2ccc([N+](=O)[O-])cc2)C(C#N)=C(O)C1(C#N)C#N`
*A* > 100 µM

*Q* Input O=C(O)C(CSC(c1ccccc1)(c1ccccc1)c1ccccc1)N=Cc1cccs1 (stereo unspecified) , output reported TGI.
*A* > 24.7 µM

*Q* Please give the documented TGI of `COc1ccc(/C=C(\C#N)c2nc(N)nc(N3N=C(C)CC3(C)C)n2)c(O)c1`
*A* 28.5 µM

*Q* Give the measured TGI for `O=C1CCCC2=C(N1)C(=O)C=CC2=O`
*A* 57.1 µM

*Q* Consider the compound `O=C(NCc1ccccc1)c1cc2cc(O)c(O)cc2cn1` . State its measured TGI.
*A* 50.9 µM

*Q* Output TGI of CCOC(=O)C(NC(=O)c1ccccc1)(Nc1ccc(S(=O)(=O)Nc2nc(C)cc(C)n2)cc1)C(F)(F)F (stereo unspecified)
*A* > 100 µM

*Q* Hello, please tell me recorded TGI for this one: COC(=O)C1(C(=O)OC)CC2c3c(c4ccccc4n3C)CC(C1=O)N2Cc1ccccc1 (stereo unspecified)
*A* > 100 µM

*Q* Kindly indicate its recorded TGI. Item: `CCc1ccc(Nc2cc(=O)[nH]c(SCc3ccccc3)n2)cc1`
*A* > 100 µM

*Q* Give recorded TGI. `COc1cc(/C=C2\[C@H]3c4c(c(OC)c(C)c(OC)c4OC)C[C@@H](C(=O)N2Cc2ccccc2)N3C(=O)OC(C)C)c(OC)c(C)c1OC`
*A* > 100 µM

*Q* State, in one line, measured TGI of Cc1cc(N2CCCCCC2)nc(NC2CCCC(Nc3ccnc4cc(Cl)ccc34)C2)n1 (stereo unspecified)
*A* 3.04 µM

*Q* Quote TGI reported for COC(=O)CCC(NC(=O)C(C)NC(=O)COC1C(O)C(OC(=O)CCNc2c3ccccc3nc3cccc([N+](=O)[O-])c23)OC(OCc2ccccc2)C1NC(C)=O)C(N)=O (stereo unspecified) please.
*A* > 10 µM

*Q* # return recorded TGI for input OC(c1cccnc1)C(F)(F)c1nc2ccccc2o1 (stereo unspecified)
*A* > 100 µM

*Q* Recall and state the measured TGI for N=C1N(c2ccccc2)C(=O)C23CCCC2C13N1CCOCC1 (stereo unspecified) .
*A* > 100 µM

*Q* Quote TGI reported for CC1=NN(C(=O)CC(=O)Nc2ccccc2Cl)C(=O)C1N=Nc1ccc(C(=O)O)cc1 (stereo unspecified) please.
*A* > 100 µM

*Q* Note down TGI recorded for `Cc1cccc(N=Nc2c(C)nn(C(=O)CC(=O)Nc3ccccc3)c2C)c1`
*A* > 100 µM

*Q* Report TGI for `COc1ccc(CNC2=C(NC(C)=O)C(=O)c3ccccc3C2=O)cc1`
*A* 14.1 µM

*Q* Provide measured TGI value, entry: `COC(=O)c1ccc(N=NN(C)COc2ccc(C#N)cc2)cc1`
*A* > 100 µM

*Q* // fetch TGI given entry CC(NC(=O)C(N)Cc1ccc(O)cn1)C(=O)O (stereo unspecified)
*A* > 100 µM

*Q* Kindly indicate its recorded TGI. Item: Cc1ccccc1NC(=O)C(=O)C(c1cnc2ccc([N+](=O)[O-])cc2n1)[N+](=O)[O-] (stereo unspecified)
*A* > 100 µM

*Q* Input `O=S1(=O)OC(c2ccc(O)cc2)(c2ccc(O)cc2)c2ccccc21` , output reported TGI.
*A* > 100 µM

*Q* Output measured TGI for this item: `Cc1ccc(S(=O)(=O)OC2=C/C(=N\c3onc(C)c3C)c3ccccc3C2=O)cc1`
*A* 38.7 µM

*Q* Consider the compound CCCCCCCC/C=C\CCCCCCC(F)C(=O)O (stereo unspecified) . State its measured TGI.
*A* > 12.5 µM

*Q* Provide only the value of recorded TGI for C/C=C/C=N/N(C(=O)c1cc([N+](=O)[O-])cc([N+](=O)[O-])c1)C1=NC(c2ccccc2)C(c2ccccc2)=NN1 (stereo unspecified)
*A* 81.8 µM

*Q* Fill in reported TGI for this entry: `C=C1C(=O)O[C@H]2[C@H]1CC/C(Cn1cc(Cn3ccc4ccccc43)nn1)=C\CC[C@@]1(C)O[C@@H]21`
*A* 4.38 µM

*Q* Provide one value: measured TGI of Cc1ccc(OCC2OC(C#N)C(Oc3ccc(C)cc3)C2Oc2ccc(C)cc2)cc1 (stereo unspecified)
*A* > 100 µM

*Q* Please report the measured TGI for `CC(=O)OCc1cc(OC(C)=O)cnc1COC(C)=O`
*A* > 100 µM

*Q* Give TGI for `CN=C1Nc2ccc(Cl)cc2C(c2ccccc2)=NN1C`
*A* > 100 µM

*Q* Identify TGI associated with the compound `CCOC(=O)c1sc2nc(SC)nc3c2c1N=CN3c1ccccc1Cl`
*A* > 100 µM

*Q* Specify reported TGI for the compound shown: `COc1cc(C#N)cc(OC)c1OCCOCCOc1c(OC)cc(C#N)cc1OC`
*A* > 100 µM

*Q* Give reported TGI value for `CN(C)C(=O)/N=c1\ss/c(=N\C(=S)N(C)C)n1-c1ccccc1`
*A* > 100 µM
